Reference for the values: ChEMBL document CHEMBL2401690

assay: Oral bioavailability in C57 mouse at 50 mg/kg; type: ADME, organism-based; conditions: in vivo
# bioavailability listing for each entry below
Kindly answer with a numeric value in %, unit omitted.

Check out these entries, answers already filled in.
Smiles Text: COc1cc(C(=O)O)ccc1NC(=O)[C@@H]1N[C@@H](CC(C)(C)C)[C@](C#N)(c2ccc(Cl)cc2F)[C@H]1c1cccc(Cl)c1F
Unit Spec: %
bioavailability: 80
--
Smiles Text: CC(C)(C)C[C@@H]1N[C@@H](C(=O)Nc2ccc(C(=O)O)cc2F)[C@H](c2cccc(Cl)c2F)[C@@]1(C#N)c1ccc(Cl)cc1F
Unit Spec: %
bioavailability: 100

// next item, bioavailability requested
Enquiry: Request the reported bioavailability associated with CC(C)(C)C[C@@H]1N[C@@H](C(=O)Nc2ccc3cc(C(=O)O)ccc3c2)[C@H](c2cccc(Cl)c2F)[C@@]1(C#N)c1ccc(Cl)cc1F
Return: 27

---

assay: Oral bioavailability in C57 mouse at 20 mg/kg; type: ADME, organism-based; conditions: in vivo
Endpoint Label: bioavailability
Record the result as number plus unit.

Smiles Text: CC(C)(C)C[C@@H]1N[C@@H](C(=O)NCC[C@H](O)CO)[C@H](c2cccc(Cl)c2F)[C@@]1(C#N)c1ccc(Cl)cc1F
bioavailability: 3.6%

Enquiry: Requested field: bioavailability. Item: CC(C)(C)C[C@@H]1N[C@@H](C(=O)NCC[C@H](O)CO)[C@H](c2cccc(Cl)c2)[C@@]1(C#N)c1ccc(Cl)cc1
Return: 6.2%

---

test: Oral bioavailability in nude mouse at 50 mg/kg; assay type: ADME, organism-based; conditions: in vivo
Endpoint Label: bioavailability (%)
Report the figure in % without appending any unit label.

Enquiry: Can you share its bioavailability? I mean this compound: CC(C)(C)C[C@@H]1N[C@@H](C(=O)Nc2ccc(C(=O)O)cc2)[C@H](c2cccc(Cl)c2F)[C@@]1(C#N)c1ccc(Cl)cc1F
Return: 83

---

assay: Clearance in human liver microsomes at […] by LC-MS/MS analysis; assay type: ADME, Microsome
CLhep predicted by entry:
Number plus unit, in that order.

Here's what some known entries look like.
Molecule: CC(C)(C)C[C@@H]1N[C@@H](C(=O)Nc2ccc(C(=O)O)cn2)[C@H](c2cccc(Cl)c2F)[C@@]1(C#N)c1ccc(Cl)cc1F
CLhep predicted: 0.534 L/h/kg

Molecule: CC(C)(C)C[C@@H]1N[C@@H](C(=O)Nc2ccc(C(=O)O)cc2F)[C@H](c2cccc(Cl)c2F)[C@@]1(C#N)c1ccc(Cl)cc1F
CLhep predicted: 0.42 L/h/kg

Molecule: CC(C)(C)C[C@@H]1N[C@@H](C(=O)NCC[C@H](O)CO)[C@H](c2cccc(Cl)c2)[C@@]1(C#N)c1ccc(Cl)cc1
CLhep predicted: 1.12 L/h/kg

Molecule: COc1cc(C(=O)O)ccc1NC(=O)[C@@H]1N[C@@H](CC(C)(C)C)[C@](C#N)(c2ccc(Cl)cc2F)[C@H]1c1cccc(Cl)c1F [IDASANUTLIN]
CLhep predicted: 0.258 L/h/kg

Continue with the next molecule.
Enquiry: Which CLhep predicted value belongs to CC(C)(C)C[C@@H]1N[C@@H](C(=O)NCC[C@H](O)CO)[C@H](c2cccc(Cl)c2F)[C@@]1(C#N)c1ccc(Cl)cc1F ?
Return: 1.19 L/h/kg
